Measured lowest phenotypically active concentration, listed per entry.
- Test system: A549-CANX-COX4
- method_notes: lowest phenotypically active concentration; higher = less potent
- test_settings: treatment time: 24 h
Form entry: value (µM) — number only.

{"columns": ["smiles_record", "display_unit", "data_value"],
 "data": [
  ["COc1cc2c(NC3CCN(C(C)C)CC3)nc(N3CCC(F)(F)CC3)nc2cc1OCCCN1CCCC1", "µM", 9]
]}

Here is the next item to consider.
stdin: Which lowest phenotypically active concentration reading was recorded for the compound `NC(=O)Nc1sc(-c2ccc(F)cc2)cc1C(N)=O` ?
stdout: 3

====

- Test system: HepG2-ACTB-RAB5A
- method_notes: phenotypically active (imaging signature differs from DMSO and reproducible) at any of 0.3-9 uM (binary (1 = active, 0 = inactive)); higher = active
- test_settings: treatment time: 24 h
test_readout: phenotypically active
// print number alone

stdin: Which phenotypically active reading was recorded for the compound `Cc1cc2nc(NCCCO)n(CC(=O)c3cc(C(C)(C)C)c(O)c(C(C)(C)C)c3)c2cc1C` ?
stdout: 1

stdin: Which phenotypically active reading was recorded for the compound `CNCCCN1c2ccccc2CCc2ccccc21` ?
stdout: 1

stdin: Which phenotypically active reading was recorded for the compound CCN[C@H]1C[C@H](C)S(=O)(=O)c2sc(S(N)(=O)=O)cc21 [dorzolamide] ?
stdout: 0

stdin: Which phenotypically active reading was recorded for the compound `CCC(=O)N1CCOc2c(cc(-c3ccc(OC)c(OC)c3)cc2OC[C@H]2CCCN(C)C2)C1` ?
stdout: 1

====

- System: A549-TP53BP1-CLTA
- method_notes: lowest phenotypically active concentration; higher = less potent
- test_settings: treatment time: 24 h
test_readout: lowest phenotypically active concentration (µM)
Form entry: value (µM) — number only.

stdin: Which lowest phenotypically active concentration reading was recorded for the compound `CCCS(=O)(=O)Nc1ccc(F)c(C(=O)c2c[nH]c3ncc(Cl)cc23)c1F` ?
stdout: 1

stdin: Which lowest phenotypically active concentration reading was recorded for the compound `CC(C)(C)c1cc(/C=C(\C#N)C(N)=S)cc(C(C)(C)C)c1O` ?
stdout: 9

stdin: Which lowest phenotypically active concentration reading was recorded for the compound `Cc1ccc(Nc2nccc(N(C)c3ccc4c(C)n(C)nc4c3)n2)cc1S(N)(=O)=O` ?
stdout: 1

stdin: Which lowest phenotypically active concentration reading was recorded for the compound O=C(O)[C@@H]1[C@H]2C[C@H]3c4[nH]c5ccccc5c4CCN3C[C@@H]2CC[C@@H]1O [Yohimbinic acid monohydrate] ?
stdout: 9

stdin: Which lowest phenotypically active concentration reading was recorded for the compound `COc1cc(C[C@H]2C(=O)OC[C@@H]2Cc2ccc(OC)c(OC)c2)ccc1O` ?
stdout: 3

stdin: Which lowest phenotypically active concentration reading was recorded for the compound `C[C@@H](N)[C@H]1CC[C@H](C(=O)Nc2ccncc2)CC1` ?
stdout: 3

====

- System: WPMY1-ACTB-RAB5A
- method_notes: phenotypically active (imaging signature differs from DMSO and reproducible) at any of 0.3-9 uM (binary (1 = active, 0 = inactive)); higher = active
- test_settings: treatment time: 24 h
Write down the outcome that applies. Available outcomes: 1 (active), -1 (inactive)

{"columns": ["compound", "assigned_class"],
 "data": [
  ["CN(C)c1ccc(C(=O)NCCCCCCC(=O)NO)cc1", 1],
  ["CN(C)c1nc(N(C)C)nc(N(C)C)n1 [altretamine]", -1],
  ["COCCCOc1ccnc(CS(=O)c2nc3ccccc3[nH]2)c1C (configuration not stated) [rabeprazole]", -1]
]}

In the following, a different compound is considered.
stdin: Short answer needed: outcome of this test for CC(=O)[C@H]1CC[C@H]2[C@@H]3CCC4=CC(=O)CC[C@]4(C)[C@H]3CC[C@]12C [progesterone] ?
stdout: -1

====

- Tested on: WPMY1-TUBA1B-RELA
- method_notes: phenotypically active (imaging signature differs from DMSO and reproducible) at any of 0.3-9 uM (binary (1 = active, 0 = inactive)); higher = active
- test_settings: treatment time: 24 h
Write down the outcome that applies. Available outcomes: yes (1) = active, no (0) = inactive

Study these solved cases before continuing.
{"columns": ["compound", "assay_target", "assigned_class"],
 "data": [
  ["CC(C)C1=CC2=CCC3[C@](C)(CCC[C@]3(C)C(=O)O)C2CC1 (stereo partly drawn) [Abietic Acid]", "WPMY1-TUBA1B-RELA", "no (0)"],
  ["C=C(C)[C@@H]1CC[C@]2(CO)CC[C@]3(C)[C@H](CC[C@@H]4[C@@]5(C)CC[C@H](O)C(C)(C)[C@@H]5CC[C@]43C)[C@@H]12 [Betulin]", "WPMY1-TUBA1B-RELA", "no (0)"],
  ["O=C(Nc1cccnn1)N1CCN(c2nccc(-c3ccc(F)c(F)c3)n2)CC1", "WPMY1-TUBA1B-RELA", "no (0)"],
  ["CCCCc1oc2ccccc2c1C(=O)c1cc(I)c(OCCN(CC)CC)c(I)c1 [amiodarone]", "WPMY1-TUBA1B-RELA", "yes (1)"]
]}

stdin: Short answer needed: outcome of this test for CCCCCN(C)CCC(O)(P(=O)(O)O)P(=O)(O)O [ibandronate] ?
stdout: no (0)

stdin: Short answer needed: outcome of this test for `Cc1cc(Nc2cc(N3CCN(C)CC3)nc(Sc3ccc(NC(=O)C4CC4)cc3)n2)[nH]n1` ?
stdout: yes (1)

stdin: Short answer needed: outcome of this test for COc1ccc(-c2cc(=O)c3c(O)cc(O)cc3o2)cc1O [Diosmetin] ?
stdout: yes (1)

stdin: Short answer needed: outcome of this test for `O=C(NCCCNc1nc(Nc2cccc(NC(=O)N3CCCC3)c2)ncc1I)c1cccs1` ?
stdout: yes (1)

stdin: Short answer needed: outcome of this test for C=C1C[C@]23C[C@@]1(O)CC[C@H]2[C@@]12C=C[C@H](O)[C@](C)(C(=O)O1)[C@H]2[C@@H]3C(=O)O [Gibberellic acid] ?
stdout: no (0)

stdin: Short answer needed: outcome of this test for `COC(=O)c1ccc(N2CCN(C)CC2)c(NC(=O)c2cccc(OC)c2)c1` ?
stdout: no (0)

stdin: Short answer needed: outcome of this test for CC(C)(C#N)c1cc(Cn2cncn2)cc(C(C)(C)C#N)c1 [Anastrozole] ?
stdout: no (0)

stdin: Short answer needed: outcome of this test for CC(=O)Nc1ccc(NC(=S)NC(=O)c2ccc(C(C)(C)C)cc2)cc1 [Tenovin-1] ?
stdout: yes (1)

stdin: Short answer needed: outcome of this test for `CC(C)c1ccc(NC(=O)Cn2cnc3c2c(=O)n(C)c(=O)n3C)cc1` ?
stdout: no (0)

stdin: Short answer needed: outcome of this test for `CC(C)(C)n1nc(-c2ccc(Cl)cc2)c2c(N)ncnc21` ?
stdout: no (0)

stdin: Short answer needed: outcome of this test for `Nc1ncnc2c1c(-c1ccc(Cl)cc1)nn2-c1cccc(-c2cnnn2Cc2cccc(-c3ccccc3)c2)c1` ?
stdout: no (0)

stdin: Short answer needed: outcome of this test for `Oc1ccc(Nc2nc(-c3ccc(Cl)cc3)cs2)cc1` ?
stdout: yes (1)

stdin: Short answer needed: outcome of this test for O=C1NC(=O)[C@@H](c2cn3c4c(cccc24)CCC3)[C@@H]1c1c[nH]c2ccccc12 [tivantinib] ?
stdout: yes (1)

stdin: Short answer needed: outcome of this test for `NC(=O)c1cccc(-c2cc(Nc3ccc(OC(F)(F)F)cc3)ncn2)c1` ?
stdout: no (0)

====

- System: WPMY1-CANX-COX4
- method_notes: phenotypically active (imaging signature differs from DMSO and reproducible) at any of 0.3-9 uM (binary (1 = active, 0 = inactive)); higher = active
- test_settings: treatment time: 24 h
Where a name gives a salt, the structure may show the parent alone.
Write down the outcome that applies. Available outcomes: 1 = active, -1 = inactive

Study these solved cases before continuing.
{"columns": ["compound", "assigned_class"],
 "data": [
  ["CCOC(=O)C(C)(C)Oc1ccc(Cl)cc1 [Clofibrate]", -1],
  ["Cc1ccc(S(=O)(=O)/C=C/C#N)cc1", 1],
  ["O=c1[nH]cnc2c1ncn2[C@H]1CC[C@@H](CO)O1", -1],
  ["CC(C)OC(=O)c1cc2c(OCC(O)CNC(C)(C)C)cccc2[nH]1 (stereo not given)", 1],
  ["COc1ccc([C@@H]2CNC(=O)C2)cc1OC1CCCC1 [(R)-(-)-Rolipram]", -1],
  ["Nc1nc(Cl)nc2c1ncn2[C@H]1C[C@H](O)[C@@H](CO)O1", 1]
]}

In the following, a different compound is considered.
stdin: Short answer needed: outcome of this test for CON(C)C(=O)N1N=C(c2cc(F)ccc2F)S[C@@]1(CCCN)c1ccccc1 [ARRY 520 trifluoroacetate] ?
stdout: 1

====

- Tested on: HepG2-TUBA1B-RELA
- method_notes: phenotypically active (imaging signature differs from DMSO and reproducible) at any of 0.3-9 uM (binary (1 = active, 0 = inactive)); higher = active
- test_settings: treatment time: 24 h
Write down the outcome that applies. Available outcomes: label 1 = active, label 0 = inactive

Study these solved cases before continuing.
{"columns": ["compound", "assigned_class"],
 "data": [
  ["N#Cc1ccccc1OCC(O)CNCCNC(=O)Nc1ccccc1 (stereo not given)", "label 0"],
  ["O=C(CCCCCCC(=O)Nc1cccnc1)NO [Pyroxamide]", "label 1"],
  ["Clc1ccccc1C(c1ccccc1)(c1ccccc1)n1ccnc1 [Clotrimazole]", "label 0"],
  ["COc1cc2nc(-c3cc(F)ccc3O)nc(N[C@@H]3CNC[C@H]3C(C)(C)O)c2cc1OC", "label 1"]
]}

In the following, a different compound is considered.
stdin: Short answer needed: outcome of this test for COc1ccnc(CS(=O)c2nc3cc(OC(F)F)ccc3[nH]2)c1OC (stereo not given) [pantoprazole] ?
stdout: label 0

Hey, just so you know, these numbers are from the supplement of paper PMC7411054.
